test system: HEK293T; test: HEK293T 72 h CellTiter-Glo cytotoxicity; conditions: 72 h
Counter-ions that a name gives are not always drawn.
reported-property: HEK293T 72-hour cytotoxicty Sinf Average (%)

> print(dat)
                                    compound  reported.measurement
 1  CCc1ccc2c(c1)N(CC(C)CN(C)C)c1ccccc1S2 (stereo not shown) [Ethylisobutrazine hydrochloride]                  -104
 2  CN(C)CC1=C[CH]([Fe][CH]2C=CC=C2)C=C1CNc1ccnc2cc(Cl)ccc12 (stereo not shown)                  -100
 3  COc1ccc(C[C@H](N)C(=O)N[C@H]2[C@@H](O)[C@H](n3cnc4c(N(C)C)ncnc43)O[C@@H]2CO)cc1 [Puromycin - cytotoxicity control]                  -101
 4  CCN(CCO)CCCC(C)Nc1ccnc2cc(Cl)ccc12 (stereo not shown) [Hydroxychloroquine sulfate]                  -101
 5  CCCCc1oc2ccccc2c1C(=O)c1cc(I)c(OCCN(CC)CC)c(I)c1                  -100
 6  CCCCN(CCCC)CCC(O)c1cc2c(Cl)cc(Cl)cc2c2cc(C(F)(F)F)ccc12 (stereo not shown) [Halofantrine HCl]                  -100
 7  CNC(=O)c1cc(Oc2ccc(NC(=O)Nc3ccc(Cl)c(C(F)(F)F)c3)cc2)ccn1                  -107
 8  CN1CC2c3ccccc3Oc3ccc(Cl)cc3C2C1 (stereo not shown) [Asenapine maleate]                  -100
 9  Cc1c(-c2ccc(O)cc2)n(Cc2ccc(OCCN3CCCCCC3)cc2)c2ccc(O)cc12 [Bazedoxifene acetate]                  -106
10  CC(C)(C)Cn1c(N)nc2ccc(-c3[nH]c(C(C)(C)C)nc3-c3ccc(F)cc3)nc21 [Ralimetinib mesylate/LY2228820, Ralimetinib mesylate]                  -100

----------
pEC50 reference
test system: SARS-CoV-2; assay: microbe, parasite or virus in culture; assay type: cell-based; settings: Severe acute respiratory syndrome coronavirus 2, HeLa-ACE2; read-out: HeLa-ACE2 TOA CoV-2 EC50 GeoMean
pEC50: −log10 of the molar value. Where a name gives a salt, the structure may show the parent alone.
reported-property: pEC50

compound	modifier-sign	reported-measurement
COc1ccc2c(c1)[C@]1(C[C@H]1c1ccc3c(/C=C/c4ccc(CN5C[C@@H](C)O[C@@H](C)C5)cc4)n[nH]c3c1)C(=O)N2	=	5.34
CCC(CC)COC(=O)[C@H](C)NP(=O)(OC[C@H]1O[C@@](C#N)(c2ccc3c(N)ncnn23)[C@H](O)[C@@H]1O)Oc1ccccc1 (stereo partly shown) [Remdesivir - control]	=	6.11
Cc1c(-c2ccc(O)cc2)n(Cc2ccc(OCCN3CCCCCC3)cc2)c2ccc(O)cc12 [Bazedoxifene acetate]	<	5.35
C=CC(=O)Nc1cc(Nc2nccc(-c3cn(C)c4ccccc34)n2)c(OC)cc1N(C)CCN(C)C	<	5.11
CC(C)Oc1ccc(-c2nc(-c3cccc4c3CC[C@@H]4NCCO)no2)cc1C#N	<	5.14
COc1cc2c(Nc3ccc(Cl)c(Cl)c3F)ncnc2cc1OC[C@@H]1C[C@@H]2CN(C)C[C@@H]2C1	<	5.12
CCCCN(CCCC)CCC(O)c1cc2c(Cl)cc(Cl)cc2c2cc(C(F)(F)F)ccc12 (stereo not shown) [Halofantrine HCl]	=	5.35
